# Test target: UniProt O60885
# Test name: TR-FRET bromodomain binding assay, BRD4 BDI
# Condition description: mean Ki, calculated from IC50, probe Kd and probe concentration
# Protocol: A time-resolved fluorescence resonance energy transfer (TR-FRET) assay was used to determine the affinities of compounds of the Examples listed in Table 1 for each bromodomain of BRD4. His-tagged first (BDI: amino acids K57-E168) and second (BDII: amino acids E352-M457) bromodomains of BRD4 were expressed and purified. […] After a one-hour equilibration at room temperature, TR-FRET ratios were determined using an Envision multilabel plate reader (Ex 340, Em 495/520). […]
Outcome measure: log10 of Ki (log10 of the value in nM)
Friendly reminder: values = log10 of Ki, unit nM.

// query Lab note: need log10 of Ki for CCNC(=O)c1cc2c(-c3cc(C(O)(CC)C(C)CC)cnc3Oc3c(C)cccc3C)cn(C)c(=O)c2[nH]1 (centres unmarked) [Example 13] on UniProt O60885, anyone have it?
// result 2.06

// query Lab note: need log10 of Ki for CCNC(=O)c1cc2c(-c3cc(C(C)(C)O)ccc3Oc3c(C)cccc3F)cn(C)c(=O)c2[nH]1 [Example 81] on UniProt O60885, anyone have it?
// result 1.63

// query Lab note: need log10 of Ki for CCNC(=O)c1cc2c(-c3cc(C4(O)CCOCC4)ccc3Oc3c(C)cc(F)cc3C)cn(C)c(=O)c2[nH]1 [Example 129] on UniProt O60885, anyone have it?
// result 2.81

// query Lab note: need log10 of Ki for CCNC(=O)c1cc2c(-c3cc(C(C)(C)O)ccc3Oc3c(C)cc(SC)cc3C)cn(C)c(=O)c2[nH]1 [Example 40] on UniProt O60885, anyone have it?
// result 2.89

// query Lab note: need log10 of Ki for CCNC(=O)c1cc2c(-c3cc(C(C)(C)O)cnc3Oc3c(C)cccc3C)cn(C)c(=O)c2[nH]1 [Example 1] on UniProt O60885, anyone have it?
// result 2.66

// query Lab note: need log10 of Ki for Cn1cc(-c2cc(C(C)(C)O)ccc2-c2ccc(F)cc2F)c2cc(C(=O)NC(C)(C)C)[nH]c2c1=O [Example 33] on UniProt O60885, anyone have it?
// result 2.96

// query Lab note: need log10 of Ki for CCNC(=O)c1cc2c(-c3cc(C(O)(c4ccc(F)cc4)C4CC4)cnc3Oc3c(C)cccc3C)cn(C)c(=O)c2[nH]1 (centres unmarked) [Example 23] on UniProt O60885, anyone have it?
// result 2.85

// query Lab note: need log10 of Ki for Cc1cccc(Cl)c1Oc1ccc(C(C)(C)O)cc1-c1cn(C)c(=O)c2[nH]c(C(=O)NC(C)(C)C(F)(F)F)cc12 [Example 41] on UniProt O60885, anyone have it?
// result 2.88

// query Lab note: need log10 of Ki for Cc1cc(F)cc(Cl)c1Oc1ncc(C(C)(C)O)cc1-c1cn(C)c(=O)c2[nH]c(C(=O)NC(C)(C)C(F)(F)F)cc12 [Example 58] on UniProt O60885, anyone have it?
// result 2.86

// query Lab note: need log10 of Ki for CCNC(=O)c1cc2c(-c3cc(C(C)(C)O)cnc3Oc3c(C)ccc(F)c3C)cn(C)c(=O)c2[nH]1 [Example 91] on UniProt O60885, anyone have it?
// result 2.43

// query Lab note: need log10 of Ki for CCNC(=O)c1cc2c(-c3cc(C(C)(O)C(C)CC)cnc3Oc3c(C)cccc3C)cn(C)c(=O)c2[nH]1 (centres unmarked) [Example 20] on UniProt O60885, anyone have it?
// result 2.56

// query Lab note: need log10 of Ki for CCNC(=O)c1cc2c(-c3cc(C4(O)COC4)ccc3Oc3c(C)cc(F)cc3C)cn(C)c(=O)c2[nH]1 [Example 123] on UniProt O60885, anyone have it?
// result 2.23

// query Lab note: need log10 of Ki for Cc1cc(F)cc(C)c1Oc1ccc(C(C)(C)O)cc1-c1cn(C)c(=O)c2[nH]c(C(N)=O)cc12 [Example 112] on UniProt O60885, anyone have it?
// result 2.52

// query Lab note: need log10 of Ki for CCNC(=O)c1cc2c(-c3cc(C(O)(CC)c4ccccc4)cnc3Oc3c(C)cccc3C)cn(C)c(=O)c2[nH]1 (centres unmarked) [Example 7] on UniProt O60885, anyone have it?
// result 2.80

###

# Test name: Xenograft tumor growth inhibition assay, LNCaP (prostate)
# Type: in vivo, Male NSG mice
# Condition description: male, NSG, in vivo; mouse LNCaP xenograft, oral, dose 1 mg/kg; read-out: AUC, mouse efficacy, Prostate (LNCaP)
Outcome measure: AUC (ng·h/mL)
Give the number; ng·h/mL is assumed, so skip it.

// query Requested read-out: AUC. Entry: CCS(=O)(=O)Nc1ccc(Oc2ccc(F)cc2F)c(-c2cn(C)c(=O)c3[nH]ccc23)c1 [Compound X, reference compound]
// result 1200

###

# Test target: BRD4 (BDI_K57-E168) (Homo sapiens (Human))
# Test name: TR-FRET bromodomain binding assay, BRD4 BDI
# Condition description: mean Ki, calculated from IC50, probe Kd and probe concentration
Outcome measure: Ki
# output: number + unit

// query Requested read-out: Ki. Entry: Cc1cccc(Cl)c1Oc1ncc(C(C)(C)O)cc1-c1cn(C)c(=O)c2[nH]c(C(=O)NC34CC(C3)C4)cc12
// result 0.406 µM

// query Requested read-out: Ki. Entry: CCNC(=O)c1cc2c(-c3cc(C(C)(O)Cc4ccc(F)cc4)cnc3Oc3c(C)cccc3C)cn(C)c(=O)c2[nH]1 (centres unmarked)
// result 2.5 µM

// query Requested read-out: Ki. Entry: CCNC(=O)c1cc2c(-c3cc(C(C)(O)CC)cnc3Oc3c(C)cccc3C)cn(C)c(=O)c2[nH]1 (centres unmarked)
// result 0.359 µM

// query Requested read-out: Ki. Entry: Cc1cc(F)cc(Cl)c1Oc1ccc(C(C)(C)O)cc1-c1cn(C)c(=O)c2[nH]c(C(=O)NC(C)(C)C(F)(F)F)cc12
// result 2.89 µM

// query Requested read-out: Ki. Entry: Cc1cc(C(C)(C)O)cc(C)c1Oc1ncc(C(C)(C)O)cc1-c1cn(C)c(=O)c2[nH]c(C(=O)NC(C)(C)C)cc12
// result 0.14 µM

// query Requested read-out: Ki. Entry: CCNC(=O)c1cc2c(-c3cc(C(C)(O)CO)ccc3Oc3c(C)cccc3Cl)cn(C)c(=O)c2[nH]1 (centres unmarked)
// result 0.323 µM

// query Requested read-out: Ki. Entry: CCNC(=O)c1cc2c(-c3cc(C(C)(C)O)cnc3Oc3c(C)cccc3C(F)(F)F)cn(C)c(=O)c2[nH]1
// result 1.6 µM

// query Requested read-out: Ki. Entry: Cc1cccc(C)c1Oc1ccc(C(C)(C)O)cc1-c1cn(C)c(=O)c2[nH]c(C(N)=O)cc12
// result 0.215 µM

// query Requested read-out: Ki. Entry: CCNC(=O)c1cc2c(-c3cc(C(C)(C)O)ccc3Oc3c(C)cccc3C(F)(F)F)cn(C)c(=O)c2[nH]1
// result 1.18 µM

// query Requested read-out: Ki. Entry: Cc1cc(F)cc(C)c1Oc1ncc(C(C)(C)O)cc1-c1cn(C)c(=O)c2[nH]c(C(=O)NC3(C)CC3(F)F)cc12 (centres unmarked)
// result 1.58 µM

// query Requested read-out: Ki. Entry: Cc1cc(F)cc(C)c1Oc1ncc(C(C)(C)O)cc1-c1cn(C)c(=O)c2[nH]c(C(=O)NC(C)(C)C(F)(F)F)cc12
// result 0.917 µM

// query Requested read-out: Ki. Entry: CCNC(=O)c1cc2c(-c3cc(C(O)(CC)CC(C)C)cnc3Oc3c(C)cccc3C)cn(C)c(=O)c2[nH]1 (centres unmarked)
// result 0.715 µM

// query Requested read-out: Ki. Entry: CCNC(=O)c1cc2c(-c3cc(C(C)(C)O)ccc3Oc3c(C)cc(F)cc3Cl)cn(C)c(=O)c2[nH]1
// result 0.284 µM

// query Requested read-out: Ki. Entry: CCNC(=O)c1cc2c(-c3cc([C@](C)(O)CO)ccc3Oc3c(C)cccc3C)cn(C)c(=O)c2[nH]1 (single isomer, unassigned)
// result 0.499 µM

###

# Test target: BRD4 (BDI_K57-E168) (Homo sapiens (Human), UniProt O60885)
# Test name: TR-FRET bromodomain binding assay, BRD4 BDI
# Condition description: mean Ki, calculated from IC50, probe Kd and probe concentration
Outcome measure: pKi
Convention used: pKi is expressed as -log10 of the molar concentration.

// query Requested read-out: pKi. Entry: CCNC(=O)c1cc2c(-c3cc(C(C)(O)C(F)(F)F)cnc3Oc3c(C)cc(F)cc3C)cn(C)c(=O)c2[nH]1 (stereo not shown) [Example 79]
// result 6.65

// query Requested read-out: pKi. Entry: CCNC(=O)c1cc2c(-c3cc(C(C)(O)CC(C)C)ccc3Oc3c(C)cccc3C)cn(C)c(=O)c2[nH]1 (stereo not shown) [Example 105]
// result 5.87

// query Requested read-out: pKi. Entry: CCNC(=O)c1cc2c(-c3cc(C(O)(CC)c4ccc(F)cc4)cnc3Oc3c(C)cccc3C)cn(C)c(=O)c2[nH]1 (stereo not shown) [Example 9]
// result 6.22

// query Requested read-out: pKi. Entry: CCNC(=O)c1cc2c(-c3cc(C4(O)CC=CC4)cnc3Oc3c(C)cccc3C)cn(C)c(=O)c2[nH]1 [Example 4]
// result 6.67

// query Requested read-out: pKi. Entry: CCNC(=O)c1cc2c(-c3cc(C(C)(O)CO)ccc3Oc3c(C)cc(F)cc3Cl)cn(C)c(=O)c2[nH]1 (stereo not shown) [Example 119]
// result 6.46

// query Requested read-out: pKi. Entry: CCNC(=O)c1cc2c(-c3nc(C(C)(C)O)ccc3Oc3c(C)cccc3C)cn(C)c(=O)c2[nH]1 [Example 77]
// result 6.22

// query Requested read-out: pKi. Entry: CCNC(=O)c1cc2c(-c3cc(C(C)(O)CO)ccc3Oc3c(C)cccc3C)cn(C)c(=O)c2[nH]1 (stereo not shown) [Example 66]
// result 6.54
